- Test system: MDA-MB-231 cells
- assay.summary: In vitro mRNA transfection with HK polyplexes (luciferase mRNA, luciferase activity)
- Assay type: cell-based
- measurement.setup: ratio mRNA:polymer 1:12 (wt:wt); mRNA 1 μg; 24 h
Bridges are numbered along the chain shown (N, C = ends). Roman numbers before positions name the chains, in order. Where no end group is shown, it is not given here.
Recorded RLU/μg-Protein (luciferase activity), one value per entry.
Return type: number; implicit unit RLU/μg-Protein.

Below: 2 substances and their reported RLU/μg-Protein (luciferase activity).
substance	unit.info	RLU/μg-Protein (luciferase activity)
I: KHHHKHHHKHHHKHHHKKKK-NH2 / II: KHHHKHHHKHHHKHHHK / III: KHHHKHHHKHHHKHHHK / IV: KHHHKHHHKHHHKHHHK (amide I:18-IV:C, I:19-III:C, I:20-II:C) [H3K4b]	RLU/μg-Protein	18.1
H3K(1,3+H)4b: four-branched HK polymer, each branch R = KHHHKHHHHKHHHKHHHHK- (SEQ ID NO: 14) (also: one of four branches on a branched lysine core)	RLU/μg-Protein	378

I am curious: what RLU/μg-Protein (luciferase activity) value has been reported for H2K4b: four-branched HK polymer on three-lysine core, each branch R = KHKHHKHHKHHKHHKHHKHK- (SEQ ID NO: 5) (also: one of four branches on a three-lysine core) ?
194.7

---

- Tested on: MDA-MB-231 cells
- assay.summary: In vitro mRNA transfection with HK polyplexes (luciferase mRNA, luciferase activity)
- Format: cell-based
- measurement.setup: ratio mRNA:polymer 1:12 (wt:wt); mRNA 1 μg; 24 h
Bridges are numbered along the chain shown (N, C = ends). Roman numbers before positions name the chains, in order. Where no end group is shown, it is not given here.
Recorded RLU/μg-Protein (luciferase activity), one value per entry.

substance	reading
H-H3K(+H)4b: four-branched HK polymer, each branch R = HKHHHKHHHKHHHHKHHHK- (SEQ ID NO: 9) (also: one of four branches on a branched lysine core)	676.4 ± 25.7 RLU/μg-Protein
H4K4b: four-branched HK polymer, each branch R = KHHHHKHHHHKHHHHKHHHHK- (SEQ ID NO: 11) (also: one of four branches on a branched lysine core)	522.4 ± 69.2 RLU/μg-Protein
I: KHHHKHHHKHHHHKHHHKKKK-NH2 / II: KHHHKHHHKHHHHKHHHK / III: KHHHKHHHKHHHHKHHHK / IV: KHHHKHHHKHHHHKHHHK (amide I:19-IV:C, I:20-III:C, I:21-II:C) [H3K(+H)4b]	1033.4 ± 197^ RLU/μg-Protein
H3K(3+H)4b: four-branched HK polymer, each branch R = KHHHKHHHHKHHHKHHHK- (SEQ ID NO: 13) (also: one of four branches on a branched lysine core)	59.0 ± 7.5 RLU/μg-Protein

Consider the record given below.
I am curious: what RLU/μg-Protein (luciferase activity) value has been reported for H3K(1+H)4b: four-branched HK polymer, each branch R = KHHHKHHHKHHHKHHHHK- (SEQ ID NO: 12) (also: one of four branches on a branched lysine core) ?
7.3 ± 2.5 RLU/μg-Protein
